Test: Intrinsic clearance (Cli), mouse liver microsomes
Type: in vitro ADME
Details: mouse liver microsomes
Please provide measured Cli (mouse) for the entries that follow.
State the answer as a number, implicitly in mL min^–1 g^–1.

What measured Cli (mouse) goes with Cc1nn(C)c(C)c1NS(=O)(=O)c1c(Cl)cc(CCCC2CCN(C)CC2)cc1Cl [compound 16] ?
4.3

Subsequent entry: Cc1nn(C)c(C)c1N(C)[S+](=O)([O-])c1c(Cl)cc(CCCCCCn2ccnc2)cc1Cl [compound 36]
3.0

Follow-up item: Cc1nn(C)c(C)c1N(C(F)F)S(=O)(=O)c1c(Cl)cc(CCCOC[C@H]2CCCCN2C)cc1Cl [compound 52]
14.2

* * *

Assay: in vitro
Type: cell-based, human
Conditions: human, MRC-5 EC50
readout name: EC50 (µM)
Record the value in µM, omitting the unit from your answer.

Given the entry `Cc1nn(C)c(C)c1N(C)[S+](=O)([O-])c1c(Cl)cc(CCCCCCn2ccnc2)cc1Cl` , report its measured EC50.
7.8

* * *

Assay: Mouse brain penetration
Assay type: in vivo
Conditions: female, NMRI, brain and blood, intravenous, 2 mg free base/kg, read-out: B:B (brain:blood ratio in mouse)
readout name: Kp
// keep it numeric: no unit symbol after the value

Name the recorded Kp for Cc1nn(C)c(C)c1NS(=O)(=O)c1ccc(-c2ccnc(N3CCNCC3)c2)cc1 [compound 55] .
0.1

* * *

Field: Cli. Provide a value for each of the molecules that follow.
Assay: Intrinsic clearance (Cli), mouse liver microsomes
Type: in vitro ADME
Conditions: mouse microsomes
The number alone won't do; follow it with the unit.

Give the measured Cli of Cc1nn(C)c(C)c1NS(=O)(=O)c1c(Cl)cc(CCCN2CCN(C)CC2)cc1Cl [compound 14] .
1.7 mL/min/g

Quick one: Cc1nn(C)c(C)c1N(CC(F)F)S(=O)(=O)c1c(Cl)cc(CCCC2CCN(C)CC2)cc1Cl [compound 41]
2.2 mL/min/g

Please do the same for Cc1nn(C)c(C)c1N(C)[S+](=O)([O-])c1c(Cl)cc(CCCC2CCN(C)CC2)cc1Cl [compound 37] as well.
7.3 mL/min/g

Proceed to CCN(c1c(C)nn(C)c1C)S(=O)(=O)c1c(Cl)cc(CCCN2CCN(C)CC2)cc1Cl [compound 34]
3.1 mL/min/g

* * *

What pEC50 was measured for each of the following?
Test system: MRC5, human lung fibroblast cells
Assay: in vitro
Format: cell-based
Conceptually, pEC50 converts a concentration in mol/L into minus its log10.

Field request: pEC50 | item: Cc1cc(-c2ccnc(N3CCNCC3)c2)ccc1S(=O)(=O)Nc1c(C)nn(C)c1C [compound 57]
6.28

Cool, now Cc1nn(C)c(C)c1N(C(F)F)S(=O)(=O)c1c(Cl)cc(CCCOC[C@H]2CCCCN2)cc1Cl [compound 89]
5.30

Then this compound: Cc1nn(C)c(C)c1NS(=O)(=O)c1ccc(-c2ccnc(N3CCNCC3)c2)cc1Cl [compound 54]
6.60

Repeat with CCN(CC)CCCCCCc1cc(Cl)c(S(=O)(=O)N(c2c(C)nn(C)c2C)C(F)F)c(Cl)c1 [compound 81]
5.54

Another compound to look at: Cc1nn(C)c(C)c1N(C(F)F)S(=O)(=O)c1c(Cl)cc(CCCOC2CC(C)(C)N(C)C(C)(C)C2)cc1Cl [compound 75]
5.28

* * *

Assay: Maximum tolerated dose in mice
Conditions: mouse, in vivo, po
readout name: MTD (mg/kg)
Could you give me the number in mg/kg? Just the number is fine.

What MTD value was documented for this compound, `Cc1c(NS(=O)(=O)c2c(Cl)cc(-c3ccnc(N4CCNCC4)c3)cc2Cl)c(CC(C)C)nn1C` ?
20

* * *

System: HsNMT
Assay type: biochemical, human
Conditions: selectivity
readout name: S = IC50 HsNMT/EC50 T. brucei
// no unit string in output, number only

Please report the recorded S = IC50 HsNMT/EC50 T. brucei for `Cc1nn(C)c(C)c1N(C(F)F)S(=O)(=O)c1c(Cl)cc(CCCOC[C@@H]2CCCN2)cc1Cl` .
18

Here is the next molecule: Cc1nn(C)c(C)c1N(C(F)F)S(=O)(=O)c1c(Cl)cc(CCCOC2CC3CCC(C2)N3C)cc1Cl (stereo not shown) [compound 72]
10

Also, Cc1nn(C)c(C)c1N(C(F)F)S(=O)(=O)c1c(Cl)cc(CCCOC2CC3CCC(C2)N3C)cc1Cl (stereo not shown) [compound 71] please.
6

And then `Cc1nn(C)c(C)c1N(C(F)F)S(=O)(=O)c1c(Cl)cc(CCCOC[C@H]2CCCN2)cc1Cl` , what is it?
7

* * *

Experiment: in vitro
Format: cell-based, human
Details: human, MRC-5 EC50
Please respond with reported EC50 at 69 h for every item in the list.

What value of EC50 at 69 h has been reported for the following compound? `Cc1nn(C)c(C)c1NS(=O)(=O)c1c(Cl)cc(C#CCN2CCN(C)CC2)cc1Cl`
> 50 µM

Follow-up item: `Cc1nn(C)c(C)c1NS(=O)(=O)c1ccc(CCCN2CCN(C)CC2)cc1`
> 50 µM

Query `Cc1nn(C)c(C)c1NS(=O)(=O)c1ccc(CCCC2CCNCC2)cc1` next
> 50 µM

* * *

Experiment: In vitro metabolite identification with mouse microsomes
Type: in vitro ADME
Settings: 5µM, 15 min at 37°C, mouse liver microsomes
Consider the cut-off 20%. If the recorded % Parent remaining (t = 15 min) is strictly smaller, the label is yes (1); if not, the label is no (0).

Check if % Parent remaining (t = 15 min) falls below 20% for `CCN(c1c(C)nn(C)c1C)S(=O)(=O)c1c(Cl)cc(CCCN2CCN(C)CC2)cc1Cl` .
no (0)

Another molecule: `Cc1nn(C)c(C)c1N(C(F)F)S(=O)(=O)c1c(Cl)cc(CCCC2CCN(C)CC2)cc1Cl`
no (0)

Consider next the molecule `Cc1nn(C)c(C)c1N(C)[S+](=O)([O-])c1c(Cl)cc(CCCC2CCN(C)CC2)cc1Cl` in the same way.
no (0)

Now give it for `Cc1nn(C)c(C)c1N(C)S(=O)(=O)c1c(Cl)cc(CCCN2CCN(C)CC2)cc1Cl` too.
yes (1)

Note, next up: `CCN(c1c(C)nn(C)c1C)[S+](=O)([O-])c1c(Cl)cc(CCCC2CCN(C)CC2)cc1Cl`
no (0)

* * *

Task for the reader: assign each of the following compounds its reported Cli (mouse).
Experiment: Intrinsic clearance (Cli), mouse liver microsomes
Assay type: in vitro ADME
Conditions: mouse liver microsomes
Provide only the numeric value, understood in mL min^–1 g^–1.

Record request: Cli (mouse) value, item `Cc1nn(C)c(C)c1N(C)S(=O)(=O)c1c(Cl)cc(CCCCCn2ccnc2)cc1Cl`
2.0

Repeat for the following compound: `Cc1nn(C)c(C)c1NS(=O)(=O)c1c(Cl)cc(Br)cc1Cl`
14

Let us now turn to `Cc1nn(C)c(C)c1N(C)[S+](=O)([O-])c1ccc(-c2ccnc(N3CCNCC3)c2)cc1`
1.3

Quick one: `Cc1nn(C)c(C)c1N(C(F)F)S(=O)(=O)c1c(Cl)cc(CCCCCCN(C)C)cc1Cl`
3.7

Another compound: `Cc1nn(C)c(C)c1N(C)S(=O)(=O)c1c(Cl)cc(CCCN2CCN(C)CC2)cc1Cl`
7.4

Another compound to check: `Cc1nn(C)c(C)c1N(C(F)F)S(=O)(=O)c1c(Cl)cc(CCCOC[C@@H]2CCCCN2C)cc1Cl`
9.8

Now give it for `Cc1nn(C)c(C)c1NS(=O)(=O)c1ccc(-c2cccc(CN3CCN(C)CC3)c2)cc1` too.
1.2

Then this compound: `Cc1nn(C)c(C)c1N(CC(F)F)S(=O)(=O)c1c(Cl)cc(CCCC2CCN(C)CC2)cc1Cl`
2.2

Now the compound `Cc1nn(C)c(C)c1N(C(F)F)[S+](=O)([O-])c1c(Cl)cc(CCCCC2CCNCC2)cc1Cl`
1.0

Next compound up: `Cc1nn(C)c(C)c1N(C(F)F)S(=O)(=O)c1c(Cl)cc(CCCOC[C@@H]2CCCN2C)cc1Cl`
8.7

Then `CCN(c1c(C)nn(C)c1C)[S+](=O)([O-])c1c(Cl)cc(CCCC2CCN(C)CC2)cc1Cl` ?
12

// repeat for `Cc1nn(C)c(C)c1N(C)[S+](=O)([O-])c1c(Cl)cc(CCCC2CCN(C)CC2)cc1Cl` and report
7.3

Now consider `Cc1nn(C)c(C)c1N(C)S(=O)(=O)c1ccc(CCCC2CCN(C)CC2)cc1` and answer again.
3.7

Please answer likewise for `CCN(c1c(C)nn(C)c1C)S(=O)(=O)c1c(Cl)cc(CCCN2CCN(C)CC2)cc1Cl`
3.1

Same question, `Cc1nn(C)c(C)c1N(C(F)F)[S+](=O)([O-])c1c(Cl)cc(CCCN2CCN(C)CC2)cc1Cl` this time
4.2

Where do the numbers come from? From paper PMC4269550.
